Details: 318.15 K; 101.33 kPa; Liquid; Pycnometric method

compound: CCCC[n+]1ccccc1.O=S(=O)([N-]S(=O)(=O)C(F)(F)F)C(F)(F)F [1-butylpyridinium bis[(trifluoromethyl)sulfonyl]imide]
mass density [kg/m3]: 1437
--
compound: CCCC[n+]1cccc(C)c1.O=S(=O)([N-]S(=O)(=O)C(F)(F)F)C(F)(F)F
mass density [kg/m3]: 1419
--
compound: CCCC[n+]1cccc(C)c1.F[B-](F)(F)F [1-butyl-3-methylpyridinium tetrafluoroborate]
mass density [kg/m3]: 1163
--
compound: CCCC[n+]1cccc(C)c1.O=S(=O)([O-])C(F)(F)F [1-butyl-3-methylpyridinium trifluoromethanesulfonate]
mass density [kg/m3]: 1270
--
compound: CCCC[n+]1ccc(C)cc1.O=S(=O)([N-]S(=O)(=O)C(F)(F)F)C(F)(F)F
mass density [kg/m3]: 1409
